Target: PI3K delta (Homo sapiens)
Construct: for the full-length p110-d subunit are generated and fused by overlapping PCR; p85(iSH2) fusion partner (see partner chain) (N); His tag (C); Tn5 (Trichoplusia ni) or TiniPro insect cells
Assay: PI3K delta kinase assay (Kinase-Glo luminescence)
Method: In a more preferred assay, the kinase reaction is performed in a final volume of 10 μL per well of a low volume non binding CORNING, 384 well black plate (Cat. No. #3676). The final concentrations of ATP and phosphatidyl inositol (PI) in the assay are 1 μM and 10 μg/mL respectively. […] IC50 is determined by a four parameter curve fitting routine that comes along with “excel fit”. […] Alternatively, IC50 values are calculated using idbsXLfit model 204, which is a 4 parameter logistic model.
pIC50: −log10 of the molar value.
REPORTED PROPERTY: pIC50

1. COc1ccc(-c2ccc3ncc4c(c3c2)n(-c2cn(C)nc2C)c(=S)n4C)cc1OC | 7.96
2. CCNc1cc(-c2ccc3ncc4c(c3c2)n(-c2c(C)noc2C)c(=O)n4C)cnc1F | 7.10
3. CN(C)c1ccc(-c2ccc3ncc4c(c3c2)n(-c2cn(C)nc2Cl)c(=O)n4C)cn1 | 7.92
4. CCNc1cc(-c2ccc3ncc4c(c3c2)n(-c2cn(C)nc2C)c(=O)n4C)cnc1CO | 7.85
5. Cc1nn(C)c(C)c1-n1c(=O)n(C)c2cnc3ccc(-c4cnc(N)c(CO)c4)cc3c21 | 7.57
6. Cc1nn(C)cc1-n1c(=O)n(C)c2cnc3ccc(-c4cnc5c(c4)C(C)(C)C(=O)N5C)cc3c21 | 7.82
7. Cc1nn(C)cc1-n1c(=O)n(C)c2cnc3ccc(-c4cnc5ccn(C)c5c4)cc3c21 | 8.05
8. CCN(C)c1cc(-c2ccc3ncc4c(c3c2)n(-c2cn(C)nc2C)c(=O)n4C)cnc1C | 8.40
9. CCOc1ccc(-c2ccc3ncc4c(c3c2)n(-c2cn(CC)nc2C)c(=O)n4C)cc1OC | 7.57
10. Cc1nn(C)cc1-n1c(=O)n(C)c2cnc3ccc(-c4cnc(CO)c(OC(CF)CF)c4)cc3c21 | 8.30
11. Cc1nn(C)cc1-n1c(=O)n(C)c2cnc3ccc(-c4cnc5cc[nH]c5c4)cc3c21 | 8.22

---

Target: PI3K beta (Homo sapiens, UniProt P42338)
Construct: for the full-length p110-b subunit are generated and fused by overlapping PCR; p85(iSH2) fusion partner (see partner chain) (N); His tag (C); Tn5 (Trichoplusia ni) or TiniPro insect cells
Sequence (P42338 with tags, fused parts or gaps limits assumed): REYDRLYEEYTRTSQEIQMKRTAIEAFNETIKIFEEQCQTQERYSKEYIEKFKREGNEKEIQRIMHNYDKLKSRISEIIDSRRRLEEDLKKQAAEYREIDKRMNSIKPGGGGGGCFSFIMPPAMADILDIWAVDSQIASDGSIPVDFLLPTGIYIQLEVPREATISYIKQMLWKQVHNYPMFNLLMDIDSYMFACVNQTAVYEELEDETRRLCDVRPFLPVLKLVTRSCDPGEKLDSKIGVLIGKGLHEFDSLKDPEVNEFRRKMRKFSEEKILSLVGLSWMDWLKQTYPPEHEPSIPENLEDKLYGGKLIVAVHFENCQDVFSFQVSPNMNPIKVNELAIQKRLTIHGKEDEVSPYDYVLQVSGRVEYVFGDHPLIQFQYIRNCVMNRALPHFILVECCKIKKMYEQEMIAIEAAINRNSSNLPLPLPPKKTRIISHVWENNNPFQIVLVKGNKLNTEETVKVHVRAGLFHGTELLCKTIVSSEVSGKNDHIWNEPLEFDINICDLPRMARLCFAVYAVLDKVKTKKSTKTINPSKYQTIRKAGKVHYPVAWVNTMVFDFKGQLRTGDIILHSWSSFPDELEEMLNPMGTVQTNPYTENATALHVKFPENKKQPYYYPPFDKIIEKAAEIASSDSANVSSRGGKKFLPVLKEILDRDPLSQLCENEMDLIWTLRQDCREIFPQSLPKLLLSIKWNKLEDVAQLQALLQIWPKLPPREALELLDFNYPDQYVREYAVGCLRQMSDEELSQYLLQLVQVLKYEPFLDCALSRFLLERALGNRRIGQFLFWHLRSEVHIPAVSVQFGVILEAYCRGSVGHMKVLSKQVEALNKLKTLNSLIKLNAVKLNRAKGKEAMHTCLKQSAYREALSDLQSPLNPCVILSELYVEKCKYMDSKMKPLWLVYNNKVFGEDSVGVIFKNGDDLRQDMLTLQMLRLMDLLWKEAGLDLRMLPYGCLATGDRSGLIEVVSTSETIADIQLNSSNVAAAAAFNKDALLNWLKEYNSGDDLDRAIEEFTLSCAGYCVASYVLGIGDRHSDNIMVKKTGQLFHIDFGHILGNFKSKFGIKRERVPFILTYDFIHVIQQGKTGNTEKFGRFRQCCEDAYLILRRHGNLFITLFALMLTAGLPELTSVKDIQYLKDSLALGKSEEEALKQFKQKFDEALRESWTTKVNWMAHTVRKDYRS
Test: PI3K beta kinase assay (Kinase-Glo luminescence)
pIC50: −log10 of the molar value.
REPORTED PROPERTY: pIC50

1) CCOc1ccc(-c2ccc3ncc4c(c3c2)n(-c2cn(CC)nc2C)c(=O)n4C)cn1 [Example 3.5] | 6.47
2) Cc1nn(C)c(C)c1-n1c(=O)n(C)c2cnc3ccc(-c4cccc(O)c4)cc3c21 [Example 32.2] | 6.78
3) CNc1cncc(-c2ccc3ncc4c(c3c2)n(-c2cn(C(C)C)nc2C)c(=O)n4C)c1 [Example 180.2] | 7.38
4) Cc1cc(-n2c(=O)n(C)c3cnc4ccc(-c5ccc(C(F)(F)F)nc5)cc4c32)n(C)n1 [Example 8.2] | 6.41
5) Cc1nn(C)cc1-n1c(=O)n(C)c2cnc3ccc(-c4cccc(C(N)=O)c4)cc3c21 [Example 46] | 6.25
6) CCNc1cc(-c2ccc3ncc4c(c3c2)n(-c2c(C)nn(CCO)c2C)c(=O)n4C)cnc1C [Example 210] | 7.31
7) CCNc1cc(-c2ccc3ncc4c(c3c2)n(-c2c(C)nn(CCOC)c2C)c(=O)n4C)cnc1OC [Example 90.2] | 6.94

---

Here, each record is paired with measured Papp A→B data.
Assay: Cellular CaCo2 permeability assay from apical to basal (A-B)
Format: in vitro ADME
Details: human, Caco-2, read-out: Pe A-B (permeability)
REPORTED PROPERTY: Papp A→B (×10⁻⁶ cm/s)

1. Cc1nn(C)cc1-n1c(=O)n(C)c2cnc3ccc(-c4cncc(N5CCC5)c4)cc3c21 | 16
2. CCOc1ccc(-c2ccc3ncc4c(c3c2)n(-c2cn(C)nc2C)c(=O)n4C)cn1 | 28.6
3. CCOc1cc(-c2ccc3ncc4c(c3c2)n(-c2cn(CC)nc2C)c(=O)n4C)ccc1OC | 18.4
4. Cc1nn(C)cc1-n1c(=O)n(C)c2cnc3ccc(-c4cnc(N(C)C)nc4)cc3c21 | 26.6
5. CCOc1ccc(-c2ccc3ncc4c(c3c2)n(-c2cn(CC)nc2C)c(=O)n4C)cn1 | 31.2

---

Test system: PKB Ser473 phosphorylation in Rat1-myr-HA-p110 alpha cells
Experiment: Reverse protein array assay, PKB Ser473 phosphorylation in Rat1-myr-p110 alpha cells
Assay type: cell-based
Conditions: 0.5 h, pAkt Ser473, 30 minutes compound incubation, read-out: p-PKB IC50
pIC50: −log10 of the molar value.
Catalogue of compounds with associated pIC50
REPORTED PROPERTY: pIC50

1) COc1ncc(-c2ccc3ncc4c(c3c2)n(-c2cn(C)nc2C)c(=O)n4C)c(OC)n1 [Example 234.2] | 7.89
2) Cc1nn(CC(=O)N(C)C)c(C)c1-n1c(=O)n(C)c2cnc3ccc(-c4cnc(N)c(C(F)(F)F)c4)cc3c21 [Example 25.2] | 7.05
3) CCc1ncc(-c2ccc3ncc4c(c3c2)n(-c2cn(C)nc2C)c(=O)n4C)cc1O [Example 188] | 8.10
4) CCOc1ccc(-c2ccc3ncc4c(c3c2)n(-c2cn(CC(=O)N3CCC3)nc2C)c(=O)n4C)cn1 [Example 138] | 7.44
5) Cc1nn(C)c(C)c1-n1c(=O)n(C)c2cnc3ccc(-c4cccnc4)cc3c21 [Example 10.1] | 6.23
6) CCOc1ccc(-c2ccc3ncc4[nH]c(=O)n(-c5cn(C)nc5C)c4c3c2)cn1 [Example 110] | 7.17
7) COc1ccc(-c2ccc3ncc4c(c3c2)n(-c2ccnn2C)c(=O)n4C)cn1 [Example 2.2] | 6.80
8) COCc1cncc(-c2ccc3ncc4c(c3c2)n(-c2cn(C)nc2Cl)c(=O)n4C)c1 [Example 54.2] | 7.38
9) Cc1nn(C)cc1-n1c(=O)n(C)c2cnc3ccc(-c4ccc(OCCCO)nc4)cc3c21 [Example 108] | 6.87

---

These molecules were tested on mTOR (Homo sapiens, UniProt P42345); pIC50 is the recorded read-out.
Sequence (P42345 1360-2549 limits assumed): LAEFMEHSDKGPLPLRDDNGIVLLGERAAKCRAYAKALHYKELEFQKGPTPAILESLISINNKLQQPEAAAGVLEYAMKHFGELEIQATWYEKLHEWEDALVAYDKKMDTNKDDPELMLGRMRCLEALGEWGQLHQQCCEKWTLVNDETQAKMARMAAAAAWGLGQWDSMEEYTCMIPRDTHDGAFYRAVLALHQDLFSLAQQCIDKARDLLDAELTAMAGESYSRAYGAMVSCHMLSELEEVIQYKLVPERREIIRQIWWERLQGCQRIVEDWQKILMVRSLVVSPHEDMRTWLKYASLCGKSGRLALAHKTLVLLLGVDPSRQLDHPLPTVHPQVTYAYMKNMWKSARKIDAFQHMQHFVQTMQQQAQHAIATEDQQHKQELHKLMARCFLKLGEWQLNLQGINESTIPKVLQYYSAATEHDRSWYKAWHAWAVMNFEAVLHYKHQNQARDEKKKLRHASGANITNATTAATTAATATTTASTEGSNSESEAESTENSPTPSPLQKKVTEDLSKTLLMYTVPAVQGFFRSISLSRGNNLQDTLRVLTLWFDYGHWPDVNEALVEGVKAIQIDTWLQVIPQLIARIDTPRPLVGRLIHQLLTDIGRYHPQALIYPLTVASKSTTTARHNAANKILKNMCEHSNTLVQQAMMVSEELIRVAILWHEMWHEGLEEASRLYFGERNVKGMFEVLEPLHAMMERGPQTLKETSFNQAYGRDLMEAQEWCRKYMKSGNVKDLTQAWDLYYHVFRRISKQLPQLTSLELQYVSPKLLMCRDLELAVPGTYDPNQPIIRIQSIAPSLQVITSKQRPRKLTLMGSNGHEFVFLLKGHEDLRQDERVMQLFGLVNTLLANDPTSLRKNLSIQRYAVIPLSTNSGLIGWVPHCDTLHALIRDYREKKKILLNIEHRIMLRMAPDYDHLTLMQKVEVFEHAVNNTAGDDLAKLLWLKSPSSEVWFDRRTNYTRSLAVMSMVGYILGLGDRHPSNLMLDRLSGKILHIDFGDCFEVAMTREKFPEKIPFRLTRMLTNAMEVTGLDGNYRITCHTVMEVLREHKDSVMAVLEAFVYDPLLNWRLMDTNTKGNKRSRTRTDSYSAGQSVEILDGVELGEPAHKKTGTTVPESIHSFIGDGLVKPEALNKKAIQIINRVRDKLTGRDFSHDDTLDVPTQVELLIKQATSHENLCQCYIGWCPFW
pIC50: −log10 of the molar value.
REPORTED PROPERTY: pIC50

1. CCNc1ncc(-c2ccc3ncc4c(c3c2)n(-c2cn(C)nc2C)c(=O)n4C)cc1COCC [Example 167] | 7.24
2. CCn1c(=O)n(-c2cn(C)nc2C)c2c3cc(-c4cncc(N)c4)ccc3ncc21 [Example 245] | 7.12

---

Catalogue of IC50 values
Target: PI3K delta (Homo sapiens, UniProt O00329)
Construct: for the full-length p110-d subunit are generated and fused by overlapping PCR; p85(iSH2) fusion partner (see partner chain) (N); His tag (C); Tn5 (Trichoplusia ni) or TiniPro insect cells
Sequence (O00329 with tags, fused parts or gaps limits assumed): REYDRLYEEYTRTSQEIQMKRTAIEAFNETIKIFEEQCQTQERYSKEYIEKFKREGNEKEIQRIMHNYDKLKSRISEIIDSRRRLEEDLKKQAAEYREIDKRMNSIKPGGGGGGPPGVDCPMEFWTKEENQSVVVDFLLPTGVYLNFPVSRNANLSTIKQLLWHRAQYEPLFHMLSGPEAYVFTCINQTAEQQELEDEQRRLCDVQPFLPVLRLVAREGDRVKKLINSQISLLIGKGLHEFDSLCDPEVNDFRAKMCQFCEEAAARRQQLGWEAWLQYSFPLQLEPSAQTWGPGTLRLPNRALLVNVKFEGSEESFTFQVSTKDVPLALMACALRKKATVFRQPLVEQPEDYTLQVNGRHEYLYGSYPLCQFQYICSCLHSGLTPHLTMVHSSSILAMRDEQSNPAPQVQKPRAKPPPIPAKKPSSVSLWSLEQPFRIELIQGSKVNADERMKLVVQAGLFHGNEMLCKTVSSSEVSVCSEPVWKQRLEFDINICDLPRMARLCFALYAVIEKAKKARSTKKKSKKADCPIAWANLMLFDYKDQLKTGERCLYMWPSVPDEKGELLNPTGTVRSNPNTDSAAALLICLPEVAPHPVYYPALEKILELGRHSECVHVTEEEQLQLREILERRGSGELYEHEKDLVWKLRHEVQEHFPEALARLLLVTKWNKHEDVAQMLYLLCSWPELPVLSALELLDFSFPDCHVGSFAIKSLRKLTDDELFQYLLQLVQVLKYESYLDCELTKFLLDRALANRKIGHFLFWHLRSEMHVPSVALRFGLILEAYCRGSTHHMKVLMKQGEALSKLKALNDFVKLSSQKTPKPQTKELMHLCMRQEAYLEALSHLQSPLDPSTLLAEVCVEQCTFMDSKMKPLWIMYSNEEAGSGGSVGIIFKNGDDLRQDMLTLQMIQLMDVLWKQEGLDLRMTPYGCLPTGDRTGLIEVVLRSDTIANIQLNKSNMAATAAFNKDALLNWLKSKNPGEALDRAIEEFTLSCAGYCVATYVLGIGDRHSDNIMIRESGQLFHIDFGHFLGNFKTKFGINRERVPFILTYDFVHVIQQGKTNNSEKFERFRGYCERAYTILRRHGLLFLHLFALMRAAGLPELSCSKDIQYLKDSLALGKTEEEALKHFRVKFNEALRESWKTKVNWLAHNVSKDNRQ
Assay: PI3K delta kinase assay (Kinase-Glo luminescence)
REPORTED PROPERTY: IC50 (nM)

1. CNc1cc(-c2ccc3ncc4c(c3c2)n(-c2cn(C)nc2C)c(=O)n4C)cnc1CO [Example 158.1] | 15
2. CCNc1cc(-c2ccc3ncc4c(c3c2)n(-c2c(C)nn(CCO)c2C)c(=O)n4C)cnc1C [Example 210] | 13
3. Cc1nn(C)cc1-n1c(=O)n(C)c2cnc3ccc(-c4cnc5c(ccn5C)c4)cc3c21 [Example 116] | 16
4. COc1ccc(-c2ccc3ncc4c(c3c2)n(-c2cn(C)nc2Cl)c(=O)n4C)cc1OC [Example 1.10] | 10
5. COc1ccc(-c2ccc3ncc4[nH]c(=O)n(-c5cn(C)nc5C)c4c3n2)cc1OC [Example 249] | 8
6. COCCOc1cncc(-c2ccc3ncc4c(c3c2)n(-c2cn(C)nc2Cl)c(=O)n4C)c1 [Example 59.2] | 9

---

Entries and their pIC50 values follow.
Test system: PKB Ser473 phosphorylation in Rat1-myr-HA-p110 alpha cells
Experiment: Reverse protein array assay, PKB Ser473 phosphorylation in Rat1-myr-p110 alpha cells
Format: cell-based
Conditions: 0.5 h, pAkt Ser473, 30 minutes compound incubation, read-out: p-PKB IC50
pIC50: −log10 of the molar value.
REPORTED PROPERTY: pIC50

1. COCCOc1cncc(-c2ccc3ncc4c(c3c2)n(-c2cn(C)nc2C)c(=O)n4C)c1 [Example 59.1] | 6.90
2. Cc1cc(-n2c(=O)n(C)c3cnc4ccc(-c5cnc(F)c(N)c5)cc4c32)n(C)n1 [Example 149.3] | 7.31
3. Cc1nn(C)cc1-n1c(=O)n(C)c2cnc3ccc(-c4cncc(C5(C#N)CCC5)c4)cc3c21 [Example 221.1] | 7.85
4. Cc1nn(C)cc1-n1c(=O)n(C)c2cnc3ccc(-c4cncc(N(C)C(C)C)c4)cc3c21 [Example 173] | 7.80
5. COCc1ccc(-c2ccc3ncc4c(c3c2)n(-c2cn(C(C)C)nc2C)c(=O)n4C)cn1 [Example 105] | 7.11

The reported measurements were obtained from patent US20140005163A1.
